tested on: Vero E6 infected with SARS-CoV-2; assay: morphology score (similarity to uninfected cells); higher = more like uninfected cells; details: 24 h
Structures can show the parent of a compound that is named as a salt.

compound	morphology score
Nc1nccc(-c2c(-c3ccc(F)cc3)ncn2C2CCCCC2)n1 (0.833333 µM)	0.197
Brc1c(Br)c(Br)c2[nH]nnc2c1Br [4,5,6,7-tetrabromobenzotriazole] (10 µM)	-0.0654
CN(C)CC/C=C1/c2ccccc2COc2ccc(CC(=O)O)cc21 [Olopatadine hydrochloride (Opatanol)] (10 µM)	0.105
CN1CCN(c2cccc(Nc3nc4c(-c5ccc(S(C)(=O)=O)cc5)cccn4n3)c2)CC1 (0.833333 µM)	0.157
C[C@H](N)Cc1c[nH]cn1 [alpha-methylhistamine-dihydrobromide-(S)-(+)] (10 µM)	0.17
Cc1ccc(/C(=C\CN2CCCC2)c2cccc(/C=C/C(=O)O)n2)cc1 [acrivastine] (10 µM)	-0.036
O=C(Oc1cc(S(=O)(=O)c2ccccc2)ccc1[N+](=O)[O-])c1ccc(Cl)cc1 (10 µM)	0.245
O=C(OCCO)c1ccccc1O [2-hydroxyethyl-salicylate] (10 µM)	-0.198
CC[C@H](Nc1ncnc2[nH]cnc12)c1nc2cccc(F)c2c(=O)n1-c1ccccc1 [idelalisib] (10 µM)	-0.015
CCN(CC)Cc1cc(Nc2ccnc3cc(Cl)ccc23)ccc1O [amodiaquine] (10 µM)	0.839
CN(C(=O)Cc1ccc(Cl)c(Cl)c1)[C@H](CN1CCCC1)c1ccccc1 (10 µM)	0.793
O=C(CCCN1CC=C(n2c(=O)[nH]c3ccccc32)CC1)c1ccc(F)cc1 [droperidol] (10 µM)	0.0599
CCc1cccc(CC)c1NC(=O)N1Cc2[nH]nc(NC(=O)c3ccc(N4CCN(C)CC4)cc3)c2C1 (10 µM)	0.108
Cc1ncc(C)n2nc([C@@H]3C[C@H]3c3nc4c5cccnc5ccn4c3C)nc12 (10 µM)	-0.0961
O=C(c1cn(Cc2cncn2Cc2ccc(Br)cc2)cc1-c1cccc2ccccc12)N1CCOCC1 (0.833333 µM)	0.342
CN(CCc1ccc(Cl)c(Cl)c1)CCN1CCCC1 (10 µM)	0.355
CN(C)CCOC(C)(c1ccccc1)c1ccccn1 (configuration not stated) [doxylamine] (10 µM)	0.112

Data origin, for the record: the supplement of paper PMC13380429
